STUDY SYSTEM: Cannabinoid receptor 2 (Homo sapiens, UniProt P34972)
Sequence (P34972 whole entry): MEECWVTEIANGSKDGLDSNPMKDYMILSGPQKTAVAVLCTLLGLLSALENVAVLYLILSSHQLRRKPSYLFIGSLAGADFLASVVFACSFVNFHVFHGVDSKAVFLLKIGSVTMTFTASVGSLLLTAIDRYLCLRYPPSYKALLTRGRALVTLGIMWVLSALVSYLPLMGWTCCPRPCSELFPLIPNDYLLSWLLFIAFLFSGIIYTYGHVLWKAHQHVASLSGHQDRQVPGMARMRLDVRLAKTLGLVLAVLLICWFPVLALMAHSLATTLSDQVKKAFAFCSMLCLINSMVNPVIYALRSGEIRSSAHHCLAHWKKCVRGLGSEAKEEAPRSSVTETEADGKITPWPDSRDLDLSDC
TEST PROTOCOL: Agonist activity at CB2 receptor (unknown origin) expressed in CHO cells by calcium mobilization assay
OBSERVED PROPERTY: EC50 (nM)

>>> result_number("CCCCOc1cccc2cc(C(=O)NC(CC)CC)c(=O)oc12")
130
>>> result_number("CCCCOc1cccc2cc(C(=O)NC(C)C)c(=O)oc12")
103
>>> result_number("CCCCOc1cccc2cc(C(=O)NC(C)(C)C)c(=O)oc12")
972
>>> result_number("CCCCOc1cccc2cc(C(=O)NC3CCCCC3)c(=O)oc12")
144
>>> result_number("CCCCCOc1cccc2cc(C(=O)NC3CCCCC3)c(=O)oc12")
245
>>> result_number("O=C(NCC1CCOCC1)c1cnc(Nc2ccc(Cl)cc2Cl)nc1C(F)(F)F [GW842166X]")
431
>>> result_number("CCCCOc1cccc2cc(C(=O)NC(C)CCC)c(=O)oc12 (stereo unspecified)")
321
>>> result_number("CCCCOc1cccc2cc(C(=O)NC3CCCC3)c(=O)oc12")
793
